target: Mu-type opioid receptor (Cavia porcellus); experiment: Agonist activity at MOR in guinea pig ileum assessed as inhibition of electrically-stimulated muscle contractions
Sequence (P97266 whole entry): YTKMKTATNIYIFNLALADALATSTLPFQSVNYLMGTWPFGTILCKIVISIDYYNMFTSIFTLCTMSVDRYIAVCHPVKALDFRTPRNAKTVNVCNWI
pIC50: −log10 of the molar value.

- Test Smiles: "Cc1cc(O)cc(C)c1C[C@@H]1NC[C@H](CCCCN)NC(=O)[C@H](Cc2ccccc2)NC(=O)[C@@H](CCCNC(=N)N)NC1=O"
  pIC50: 5.60

----------
assay: Metabolic stability in rat plasma assessed as compound remaining at 37 degC measured after 15 mins by reverse-phase HPLC analysis

- Compound: "CC(C)C[C@H](NC(=O)[C@H](Cc1ccccc1)NC(=O)CNC(=O)CNC(=O)[C@@H](N)Cc1ccc(O)cc1)C(=O)O [ENKEPHALIN]"
  remaining at 0.25 h: "< 15%"

----------
test: Selectivity ratio of Ki for KOR in guinea pig brain membrane to Ki for MOR in rat brain membrane; format: cell membranes

- Test Smiles: "Cc1cc(O)cc(C)c1C[C@@H]1NC(=O)C[C@H](CCCCN)NC(=O)[C@H](Cc2ccccc2)NC(=O)[C@@H](CCCNC(=N)N)NC1=O"
  Ratio Ki: 6
- Test Smiles: "Cc1cc(O)cc(C)c1C[C@@H]1NC(=O)[C@H](CCCCN)NC(=O)[C@H](Cc2ccccc2)NC(=O)[C@@H](CCCNC(N)=O)NC1=O"
  Ratio Ki: 165
- Test Smiles: "Cc1cc(O)cc(C)c1C[C@@H]1NC[C@H](CCCCN)NC(=O)[C@H](Cc2ccccc2)NC(=O)[C@@H](CCCNC(=N)N)NC1=O"
  Ratio Ki: 7
- Test Smiles: "Cc1cc(O)cc(C)c1C[C@@H]1NC(=O)[C@H](CCCCN)NC(=O)[C@H](Cc2ccccc2)NC(=O)[C@@H](CCCCNC(=N)N)NC1=O"
  Ratio Ki: 23
